# Test system: R275C/beta1
# EXPERIMENTAL DETAILS: modulators of BK channel variants, profiling panel, selectivity assay, cell-based, U2OS BacMam, thallium flux, beta subunits (AID 1259406);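 further: initial slope of Thallos dye fluorescence rise after thallium is added; log ratio against the mean of 0.3% DMSO vehicle wells on the same plate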
# DETAILS: at 30 µM
ASSAY READOUT: log fold change Tl+ flux
Respond with the number and no other words.

# input I have this molecule here, `CN/C(=C\[N+](=O)[O-])NCCSCc1csc(CN(C)C)n1` , and I need its recorded log fold change Tl+ flux.
# output -0.02

# input I have this molecule here, `Cc1cc2c(NC(=O)c3ccccc3C(=O)O)cccc2nn1` , and I need its recorded log fold change Tl+ flux.
# output -0.0051

# input I have this molecule here, `CCOC(=O)c1cnn(C(=O)c2ccc(-n3c(C)ccc3C)cc2)c1N` , and I need its recorded log fold change Tl+ flux.
# output -0.0219

# input I have this molecule here, `O=C(Nc1ccc(F)cc1)N1CCN(Cc2ccccc2)CC1` , and I need its recorded log fold change Tl+ flux.
# output 0.0689

# input I have this molecule here, `Nc1ccc2cn[nH]c2c1` , and I need its recorded log fold change Tl+ flux.
# output -0.000281

# input I have this molecule here, `COc1ccc(CCN=Cc2ccccn2)cc1OC` , and I need its recorded log fold change Tl+ flux.
# output -0.0399

Please turn your attention to the following entry.
# input I have this molecule here, CCOC(=O)C(C)Oc1ccc(NS(=O)(=O)c2cc(OC)ccc2OC)cc1Cl (configuration not stated) , and I need its recorded log fold change Tl+ flux.
# output 0.0118

###

# TESTED SYSTEM: L-lactate dehydrogenase (Plasmodium falciparum (isolate CDC / Honduras))
# EXPERIMENTAL DETAILS: PfLDH activity inhibition – cell lysate, 3D7 strain, counter-screen for P. falciparum growth inhibition project (AID 2304);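 further: 0% = vehicle and 100% = reference inhibitor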
# DETAILS: P. falciparum 3D7 crude extract, LDH APAD/NBT absorbance; at 2 µM; stronger effect = higher value
ASSAY READOUT: inhibition (%)
I only need the number, in %, no unit after it.

Use these answered entries as a reference point.
# input I have this molecule here, `Cc1c(F)cc(C(=O)NC2CC2)cc1-c1ccc2c(cnn2S(=O)(=O)c2ccc(F)c(F)c2)c1` , and I need its recorded inhibition.
# output -2

# input I have this molecule here, `CCOc1ccc(-c2n[nH]c(C(F)(F)F)c2-c2ccccc2OC)c(O)c1` , and I need its recorded inhibition.
# output -5

# input I have this molecule here, `O=C(Nc1cccc(CN2CCCN(Cc3cccc(O)c3)CC2)c1)c1cc2ccccc2s1` , and I need its recorded inhibition.
# output -4

# input I have this molecule here, `O=C(Nc1cccc(-c2nn3ccccc3c2-c2ccnc(Nc3ccc(C(=O)N4CCOCC4)cc3)n2)c1)c1c(F)cccc1F` , and I need its recorded inhibition.
# output 4

# input I have this molecule here, `CCn1ccc2c(N3CCCCS3(=O)=O)cc(C(=O)N[C@@H](Cc3ccccc3)[C@H](O)CNC(C)(C)CCCC(C)C)cc21` , and I need its recorded inhibition.
# output -6

Please turn your attention to the following entry.
# input I have this molecule here, `Cc1ccc(O)cc1Nc1ccnc2cc(-c3ccncc3)ccc12` , and I need its recorded inhibition.
# output 6

###

# EXPERIMENTAL DETAILS: inhibition of 3D7 malaria parasite growth – strain 3D7 (AID 2306);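 further: 0% = DMSO wells and 100% = chloroquine plus artemisinin control wells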
# DETAILS: P. falciparum 3D7 erythrocytic growth, LDH absorbance, 72 h; at 2 µM; stronger effect = higher value
The source made the active and inactive calls. No rule for the calls is given here.
ASSAY READOUT: growth inhibition

Use these answered entries as a reference point.
# input I have this molecule here, `COc1ccc(CNC2CCN(C)CC2)cc1-c1ccc(S(=O)(=O)NCCN2CCCC2)s1` , and I need its recorded growth inhibition.
# output 90% (active)

# input I have this molecule here, `COc1ccc(CN2CCC(C(=O)Nc3cccc(-c4cccc(Cl)c4)c3)CC2)cc1O` , and I need its recorded growth inhibition.
# output 91% (active)

Please turn your attention to the following entry.
# input I have this molecule here, `CCOc1cc(C)c(C2CCN(CCCCNC(=O)c3ccc(NC(=O)c4ccc(Cl)cc4)cc3)CC2)cc1C` , and I need its recorded growth inhibition.
# output 100% (active)

###

# Tested on: F380Y/beta2Delta
# EXPERIMENTAL DETAILS: modulators of BK channel variants, profiling panel, selectivity assay, cell-based, U2OS BacMam, thallium flux, beta subunits (AID 1259406);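 further: initial slope of Thallos dye fluorescence rise after thallium is added; log ratio against the mean of 0.3% DMSO vehicle wells on the same plate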
# DETAILS: at 30 µM
// log fold change Tl+ flux lookup, one value per entry
Respond with the number and no other words.

# input Which log fold change Tl+ flux is reported with F380Y/beta2Delta for this entry: `Cc1cnc(N)c(C)n1` ?
# output 0.0872

# input Which log fold change Tl+ flux is reported with F380Y/beta2Delta for this entry: CCC[C@@H]1C[C@@H](C(=O)N[C@H]([C@@H](C)O)[C@H]2O[C@H](SC)[C@H](O)[C@@H](O)C2O)N(C)C1 (stereo not given in full) ?
# output 0.0245

# input Which log fold change Tl+ flux is reported with F380Y/beta2Delta for this entry: `COc1ccc(C[C@H](C)NC[C@@H](O)c2ccc(O)c(NC=O)c2)cc1` ?
# output 0.0145

***
# input Which log fold change Tl+ flux is reported with F380Y/beta2Delta for this entry: `CC1(C)CCc2cc(C=NNC(=O)c3cccc(Cl)c3Cl)ccc2O1` ?
# output -0.00817

# input Which log fold change Tl+ flux is reported with F380Y/beta2Delta for this entry: `Cn1cnc([N+](=O)[O-])c1Sc1cccs1` ?
# output 0.0459

###

# EXPERIMENTAL DETAILS: sensitizers of A549 cells to miR-34 induction, primary screen, imaging, A549 dox-inducible miR-34, nuclei and caspase counts (AID 1347080)
# DETAILS: A549 miR-34 inducible, Hoechst nuclei count, 48 h; measured here: total cells with miR-34 induction; stronger effect = lower value
// cell count lookup, one value per entry

Use these answered entries as a reference point.
# input I have this compound here, `Nc1ncnc2c1ncn2[C@@H]1O[C@H](CO)C[C@H]1O` , and I need its recorded cell count.
# output 9150

# input I have this compound here, CC(=O)[C@H]1CCC2C3C[C@H](C)C4=CC(=O)CC[C@]4(C)C3[C@@H](O)C[C@@]21C (some centres not stated) , and I need its recorded cell count.
# output 8730

# input I have this compound here, `O=C1O[C@@H](CO)[C@H](O)[C@@H](O)[C@@H]1O` , and I need its recorded cell count.
# output 12000

***
# input I have this compound here, `CC(=O)Nc1cc2ccccc2oc1=O` , and I need its recorded cell count.
# output 8640

# input I have this compound here, `CCCCC[C@H](CC(=O)NO)C(=O)N[C@H](C(=O)N1CCC[C@H]1CO)C(C)C` , and I need its recorded cell count.
# output 6800

# input I have this compound here, `CCC[C@@H]1C[C@@H](C(=O)N[C@H]([C@H]2O[C@H](SC)[C@H](O)[C@@H](O)[C@H]2O)[C@H](C)O)N(C)C1` , and I need its recorded cell count.
# output 11900

# input I have this compound here, O=C1[C@H](CCC(O)c2ccc(F)cc2)[C@@H](c2ccc(O)cc2)N1c1ccc(F)cc1 (some centres not stated) , and I need its recorded cell count.
# output 11700

###

// growth inhibition lookup, one value per entry
# EXPERIMENTAL DETAILS: antimalarial activity against Dd2 strain (AID 2302);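 further: 0% = DMSO untreated growth and 100% = chloroquine plus artemisinin killed control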
# DETAILS: P. falciparum Dd2 in RBCs, LDH growth readout, 72 h; at 2 µM; stronger effect = higher value
I only need the number, in %, no unit after it.

Use these answered entries as a reference point.
# input I have this molecule here, `CCCCCOc1c(CCC)cc(Cc2cnc(N)nc2N)cc1CCC` , and I need its recorded growth inhibition.
# output -3

# input I have this molecule here, CCCCCN1C(=O)N(c2ccc(Cl)c(Cl)c2)C(N(O)C(=O)Nc2ccc(Cl)c(Cl)c2)C1(C)C (stereo unspecified) , and I need its recorded growth inhibition.
# output 99

# input I have this molecule here, `CCN(c1ccc(O)c(CN2CCCCC2)c1)c1ccc([N+](=O)[O-])cn1` , and I need its recorded growth inhibition.
# output 64

# input I have this molecule here, `Cc1cccc(Cn2ccc3c4c(N)nc(N)nc4ccc32)c1` , and I need its recorded growth inhibition.
# output 98

# input I have this molecule here, `O=C(Nc1c(F)cccc1F)c1cccc(-c2nn3ccccc3c2-c2ccnc(Nc3cccc(-c4cnco4)c3)n2)c1` , and I need its recorded growth inhibition.
# output 94

# input I have this molecule here, OC1CCC(Nc2ccc3ncc(-c4ccc(Cl)cc4)n3n2)CC1 (stereo unspecified) , and I need its recorded growth inhibition.
# output 98

# input I have this molecule here, `CCOc1ccc(CNCCCCCCNCc2ccc(OCC)c3ccccc23)c2ccccc12` , and I need its recorded growth inhibition.
# output 75

# input I have this molecule here, NC1CCN(CCNCc2cccc(-c3ccc(-c4nc5ccc(C(F)(F)F)cc5[nH]4)cc3)c2)C1 (stereo unspecified) , and I need its recorded growth inhibition.
# output 75

***
# input I have this molecule here, `COc1cc2nc(N3CCC(CCCC4CCNCC4)CC3)nc(NCc3ccccn3)c2cc1OC` , and I need its recorded growth inhibition.
# output 6

# input I have this molecule here, `CC(C)(CNC(=O)C1CCN(CCOc2ccc(F)c(F)c2)CC1)c1nc(-c2ccc(Cl)c(O)c2)c(-c2ccncc2)[nH]1` , and I need its recorded growth inhibition.
# output 19

# input I have this molecule here, CCCOc1cc2c(cc1OCCC)C(C=Cc1ccc(Cl)cc1Cl)=NC(C)C2 (stereo unspecified) , and I need its recorded growth inhibition.
# output 75
